Recorded optomotor response to blue moving lines by entry
Tested on: Danio rerio larvae (5 dpf)
assay_protocol: optomotor response to blue moving lines, difference vs DMSO (percentage points (treated minus DMSO)); higher = more of the behaviour than the DMSO vehicle control
condition_info: 10 µM; exposure time: 3 h pre-incubation + 3 h imaging
Counter-ions that a name gives are not always drawn.

>  <compound>
CCCc1nn(C)c2c(=O)[nH]c(-c3cc(S(=O)(=O)N4CCN(C)CC4)ccc3OCC)nc12 [Sildenafil citrate]

>  <optomotor response to blue moving lines>
8.78

$$$$
>  <compound>
CC/C(=C(\c1ccccc1)c1ccc(OCCN(C)C)cc1)c1ccccc1 [Tamoxifen citrate]

>  <optomotor response to blue moving lines>
-14.3

$$$$
>  <compound>
COC(=O)C1=C(C)NC(C)=C(C(=O)OC(C)C)C1c1cccc2nonc12 (configuration not stated) [Isradipine]

>  <optomotor response to blue moving lines>
-11.3

$$$$
>  <compound>
O=C(O)c1cc(/N=N/c2ccc(S(=O)(=O)Nc3ccccn3)cc2)ccc1O [Sulfasalazine]

>  <optomotor response to blue moving lines>
-4.22

$$$$
>  <compound>
CN(CCOc1ccc(CC2SC(=O)NC2=O)cc1)c1ccccn1 (configuration not stated) [Rosiglitazone]

>  <optomotor response to blue moving lines>
-12.4

$$$$
>  <compound>
C[C@]12CCC(=O)C=C1CC[C@@H]1[C@@H]2[C@@H](O)C[C@@]2(C)[C@H]1CC[C@]2(O)C(=O)CO [Hydrocortisone]

>  <optomotor response to blue moving lines>
8.43

$$$$
>  <compound>
C[C@@H]1C[C@H]2[C@@H]3CCC4=CC(=O)C=C[C@]4(C)[C@@]3(F)[C@@H](O)C[C@]2(C)[C@@]1(O)C(=O)CO [Dexamethasone]

>  <optomotor response to blue moving lines>
2.76

$$$$

###

System: Danio rerio larvae (5 dpf)
assay_protocol: optomotor response to fast red moving lines, difference vs DMSO (percentage points (treated minus DMSO)); higher = more of the behaviour than the DMSO vehicle control
condition_info: 10 µM; exposure time: 3 h pre-incubation + 3 h imaging
Counter-ions that a name gives are not always drawn.

>  <compound>
C[C@H](Cc1cc2c(c(C(N)=O)c1)N(CCCO)CC2)NCCOc1ccccc1OCC(F)(F)F [Silodosin]

>  <system_name>
Danio rerio larvae (5 dpf)

>  <optomotor response>
11.4

$$$$
>  <compound>
CC(C)C(=O)OCC(=O)[C@@]12O[C@H](C3CCCCC3)O[C@@H]1C[C@H]1[C@@H]3CCC4=CC(=O)C=C[C@]4(C)[C@H]3[C@@H](O)C[C@@]12C [Ciclesonide]

>  <system_name>
Danio rerio larvae (5 dpf)

>  <optomotor response>
-3.93

$$$$
>  <compound>
C#CCN[C@@H]1CCc2ccccc21 [Rasagiline mesylate]

>  <system_name>
Danio rerio larvae (5 dpf)

>  <optomotor response>
0.354

$$$$
>  <compound>
CCOC(=O)C1=C(C)NC(C)=C(C(=O)OC)C1c1cccc(Cl)c1Cl (stereo not given) [Felodipine]

>  <system_name>
Danio rerio larvae (5 dpf)

>  <optomotor response>
-15.9

$$$$
>  <compound>
CC(C)COCC(CN(Cc1ccccc1)c1ccccc1)N1CCCC1 (stereo not given) [Bepridil hydrochloride]

>  <system_name>
Danio rerio larvae (5 dpf)

>  <optomotor response>
7.72

$$$$
>  <compound>
Cc1ccc(-c2cc(C(F)(F)F)nn2-c2ccc(S(N)(=O)=O)cc2)cc1 [Celecoxib]

>  <system_name>
Danio rerio larvae (5 dpf)

>  <optomotor response>
-11.4

$$$$
>  <compound>
CS(=O)(=O)CCNCc1ccc(-c2ccc3ncnc(Nc4ccc(OCc5cccc(F)c5)c(Cl)c4)c3c2)o1 [Lapatinib]

>  <system_name>
Danio rerio larvae (5 dpf)

>  <optomotor response>
-0.638

$$$$
>  <compound>
CC(C)N(CCCCOCC(=O)NS(C)(=O)=O)c1cnc(-c2ccccc2)c(-c2ccccc2)n1 [Selexipag]

>  <system_name>
Danio rerio larvae (5 dpf)

>  <optomotor response>
-6.49

$$$$
>  <compound>
CC[C@H]1OC(=O)[C@H](C)[C@@H](O[C@H]2C[C@@](C)(OC)[C@@H](O)[C@H](C)O2)[C@H](C)[C@@H](O[C@@H]2O[C@H](C)C[C@H](N(C)C)[C@H]2O)[C@](C)(O)C[C@@H](C)CN(C)[C@H](C)[C@@H](O)[C@]1(C)O [Azithromycin]

>  <system_name>
Danio rerio larvae (5 dpf)

>  <optomotor response>
-9.96

$$$$
>  <compound>
Cn1cnc([N+](=O)[O-])c1Sc1ncnc2[nH]cnc12 [Azathioprine]

>  <system_name>
Danio rerio larvae (5 dpf)

>  <optomotor response>
9.79

$$$$
>  <compound>
CCOC(=O)[C@H](CCc1ccccc1)N[C@H]1CCc2ccccc2N(CC(=O)O)C1=O [Benazepril hydrochloride]

>  <system_name>
Danio rerio larvae (5 dpf)

>  <optomotor response>
-1.29

$$$$
>  <compound>
CN(CCOc1ccc(NS(C)(=O)=O)cc1)CCc1ccc(NS(C)(=O)=O)cc1 [Dofetilide]

>  <system_name>
Danio rerio larvae (5 dpf)

>  <optomotor response>
2.79

$$$$
>  <compound>
CN(C)CCc1c[nH]c2ccc(C[C@H]3COC(=O)N3)cc12 [Zolmitriptan]

>  <system_name>
Danio rerio larvae (5 dpf)

>  <optomotor response>
-9.74

$$$$
>  <compound>
COC(=O)C1=C(C)NC(C)=C(C(=O)OC(C)C)C1c1cccc2nonc12 (stereo not given) [Isradipine]

>  <system_name>
Danio rerio larvae (5 dpf)

>  <optomotor response>
-16.6

$$$$
>  <compound>
CN(C)CC/C=C1/c2ccccc2COc2ccc(CC(=O)O)cc21 [Olopatadine hydrochloride]

>  <system_name>
Danio rerio larvae (5 dpf)

>  <optomotor response>
5.8

$$$$
